Test: Half life in po dosed rat
Format: ADME, organism-based
Details: in vivo

CHEM_SMILES: C(#Cc1cccc(CN2CCOCC2)c1)CCN1CCCCC1
half-life / h: 1.5

###

Biological target: hERG (KCNH2) (Homo sapiens)
Sequence (Q12809 whole entry): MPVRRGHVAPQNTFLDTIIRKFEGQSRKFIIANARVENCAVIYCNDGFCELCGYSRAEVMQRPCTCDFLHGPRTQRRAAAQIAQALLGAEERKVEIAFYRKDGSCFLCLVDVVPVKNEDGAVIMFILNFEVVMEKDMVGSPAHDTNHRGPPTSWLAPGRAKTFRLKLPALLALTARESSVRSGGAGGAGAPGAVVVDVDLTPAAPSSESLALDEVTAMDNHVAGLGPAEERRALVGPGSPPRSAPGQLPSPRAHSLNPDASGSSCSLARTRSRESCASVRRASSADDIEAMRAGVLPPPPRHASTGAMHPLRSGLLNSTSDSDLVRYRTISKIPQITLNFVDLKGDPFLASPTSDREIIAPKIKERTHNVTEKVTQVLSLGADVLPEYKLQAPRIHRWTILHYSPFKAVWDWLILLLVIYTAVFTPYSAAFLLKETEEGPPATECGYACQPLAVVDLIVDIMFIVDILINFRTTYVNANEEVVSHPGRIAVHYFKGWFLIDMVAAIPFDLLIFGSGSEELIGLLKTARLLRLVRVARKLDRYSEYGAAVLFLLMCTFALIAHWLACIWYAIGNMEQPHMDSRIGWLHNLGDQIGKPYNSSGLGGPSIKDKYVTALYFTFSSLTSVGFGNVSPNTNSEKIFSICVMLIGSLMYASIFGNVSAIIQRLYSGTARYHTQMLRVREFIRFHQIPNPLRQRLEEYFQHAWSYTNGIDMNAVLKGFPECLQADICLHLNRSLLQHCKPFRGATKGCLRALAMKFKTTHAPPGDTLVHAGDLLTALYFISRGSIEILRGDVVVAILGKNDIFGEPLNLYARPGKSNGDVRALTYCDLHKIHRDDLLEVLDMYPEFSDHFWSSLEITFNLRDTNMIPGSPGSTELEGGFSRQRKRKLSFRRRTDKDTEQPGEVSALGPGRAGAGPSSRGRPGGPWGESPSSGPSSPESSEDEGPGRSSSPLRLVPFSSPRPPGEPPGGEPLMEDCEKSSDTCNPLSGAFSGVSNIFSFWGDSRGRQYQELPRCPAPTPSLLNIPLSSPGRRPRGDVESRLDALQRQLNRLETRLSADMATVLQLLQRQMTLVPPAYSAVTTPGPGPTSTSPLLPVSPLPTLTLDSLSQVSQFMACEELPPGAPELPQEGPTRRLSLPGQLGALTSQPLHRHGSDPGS
Test: Inhibition of human ERG at 3 uM
Settings: read-out: Activity
READOUT_LABEL: inhibition at 3 µM (%)

CHEM_SMILES: C(#Cc1cccc(CN2CCOCC2)c1)CCN1CCCCC1
VALUE_MEASURED: 8.3

###

The entries below come with measured pKi values attached.
Target: Histamine H3 receptor (Homo sapiens, UniProt Q9Y5N1)
Sequence (Q9Y5N1 whole entry): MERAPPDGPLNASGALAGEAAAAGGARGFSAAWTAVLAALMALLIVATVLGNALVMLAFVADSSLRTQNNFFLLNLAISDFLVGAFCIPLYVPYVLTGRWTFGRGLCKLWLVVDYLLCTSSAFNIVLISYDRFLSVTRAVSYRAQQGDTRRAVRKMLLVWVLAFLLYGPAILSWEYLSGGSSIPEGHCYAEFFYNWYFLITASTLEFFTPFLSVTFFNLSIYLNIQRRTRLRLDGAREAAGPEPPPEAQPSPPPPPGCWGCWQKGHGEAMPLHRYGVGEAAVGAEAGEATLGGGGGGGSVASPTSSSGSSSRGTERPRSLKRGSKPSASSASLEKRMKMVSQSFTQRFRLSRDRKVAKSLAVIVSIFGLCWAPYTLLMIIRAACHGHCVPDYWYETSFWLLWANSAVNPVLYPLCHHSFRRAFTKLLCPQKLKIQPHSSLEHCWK
Assay: Displacement of [3H]N-alpha-methylhistamine from human histamine H3 receptor expressed in SK-N-MC cells
Format: cell-based
pKi: −log10 of the molar value.

CHEM_SMILES: C(#Cc1ccc(CN2CCCCC2)cc1)CCN1CCSCC1
pKi: 8.42
//
CHEM_SMILES: CCN(CC)CCC#Cc1ccc(CN2CCCCC2)cc1
pKi: 8.87
//
CHEM_SMILES: CN1CCN(Cc2ccc(C#CCCN3CCCCC3)cc2)CC1
pKi: 9.01
//
CHEM_SMILES: C(#Cc1ccccc1CN1CCCCC1)CCN1CCCCC1
pKi: 7.08
//
CHEM_SMILES: C(#Cc1ccc(CN2CCC(Cc3ccccc3)CC2)cc1)CCN1CCCCC1
pKi: 8.46
//
CHEM_SMILES: CN(C)Cc1ccc(C#CCCN2CCCCC2)cc1
pKi: 9.04
//
CHEM_SMILES: OC1CCN(Cc2ccc(C#CCCN3CCCCC3)cc2)CC1
pKi: 9.05
//
CHEM_SMILES: C(#Cc1ccc(CN2CCN(Cc3ccccc3)CC2)cc1)CCN1CCCCC1
pKi: 8.72
//
CHEM_SMILES: CN1CCN(Cc2cccc(C#CCCN3CCCCC3)c2)CC1
pKi: 9.14
//
CHEM_SMILES: CC(C)N1CCN(Cc2ccc(C#CCCN3CCCCC3)cc2)CC1
pKi: 9.06
//
CHEM_SMILES: NC(=O)C1CCN(Cc2cccc(C#CCCN3CCCCC3)c2)CC1
pKi: 9.26

###

Biological target: Histamine H1 receptor (Homo sapiens, UniProt P35367)
Sequence (P35367 whole entry): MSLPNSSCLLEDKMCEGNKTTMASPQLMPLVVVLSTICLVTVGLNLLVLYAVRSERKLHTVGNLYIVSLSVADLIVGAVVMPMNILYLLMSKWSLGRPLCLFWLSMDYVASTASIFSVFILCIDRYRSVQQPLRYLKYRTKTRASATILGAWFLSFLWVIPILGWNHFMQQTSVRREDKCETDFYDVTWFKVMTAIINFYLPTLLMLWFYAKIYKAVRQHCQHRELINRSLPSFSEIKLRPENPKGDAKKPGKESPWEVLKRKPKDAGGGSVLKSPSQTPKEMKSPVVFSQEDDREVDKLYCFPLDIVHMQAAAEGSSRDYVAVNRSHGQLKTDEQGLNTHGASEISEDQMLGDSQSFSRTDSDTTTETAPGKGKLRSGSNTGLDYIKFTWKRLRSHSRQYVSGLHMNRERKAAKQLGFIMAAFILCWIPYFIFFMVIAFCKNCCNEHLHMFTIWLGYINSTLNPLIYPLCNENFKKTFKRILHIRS

CHEM_SMILES: C(#Cc1cccc(CN2CCOCC2)c1)CCN1CCCCC1
Ki: > 10 µM

###

Molecular target: Histamine H3 receptor (Rattus norvegicus, UniProt Q9QYN8)
Sequence (Q9QYN8 whole entry): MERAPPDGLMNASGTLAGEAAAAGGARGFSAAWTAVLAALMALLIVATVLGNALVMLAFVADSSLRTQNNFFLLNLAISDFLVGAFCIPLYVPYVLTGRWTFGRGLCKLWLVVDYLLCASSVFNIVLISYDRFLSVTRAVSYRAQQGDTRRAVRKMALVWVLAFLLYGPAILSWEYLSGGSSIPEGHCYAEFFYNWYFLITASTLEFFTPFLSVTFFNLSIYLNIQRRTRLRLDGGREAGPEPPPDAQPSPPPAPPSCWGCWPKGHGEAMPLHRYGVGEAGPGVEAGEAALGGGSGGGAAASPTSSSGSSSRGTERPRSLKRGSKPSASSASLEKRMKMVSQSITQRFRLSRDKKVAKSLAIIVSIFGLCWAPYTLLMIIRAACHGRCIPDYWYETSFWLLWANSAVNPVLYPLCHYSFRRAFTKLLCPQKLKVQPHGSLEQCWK

CHEM_SMILES: C(#Cc1cccc(CN2CCOCC2)c1)CCN1CCCCC1
Ki: 7.08 nM
